Attribute: IC50
- TARGET: T1, VEGF165 (human, UniProt P15692-4 27-191)
- T1 construct: Treated as one molecule; also called VEGF-A165; human VEGF-A165
- T1 sequence (P15692 other isoform, or with tags, fused parts or gaps limits assumed): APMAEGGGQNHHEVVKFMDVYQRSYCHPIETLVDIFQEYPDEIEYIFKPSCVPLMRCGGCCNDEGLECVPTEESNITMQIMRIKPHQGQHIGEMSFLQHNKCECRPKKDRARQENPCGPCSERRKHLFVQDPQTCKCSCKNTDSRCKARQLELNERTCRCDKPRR
- ASSAY DETAILS: binding competition ELISA (VEGF165 Quantikine): free VEGF165 captured by the plate antibody
// units = ng/mL; emit number, no label

Request the reported IC50 associated with mvsFlt 650 kDa HCR (multivalent sFlt-hyaluronic acid conjugate, high conjugation ratio) (other, UniProt P17948 27-328, looked up, thiolated with 2-iminothiolane and linked through EMCH maleimide to 650 kDa hyaluronic acid, domain: first 3 Ig-like extracellular domains; Protein-polymer conjugate; 30:1 sFlt:HyA feed ratio; final sFlt:HyA 17.1 by SEC-MALS; not shown: tag implied by Ni-NTA purification, not described) SKLKDPELSLKGTQHIMQAGQTLHLQCRGEAAHKWSLPEMVSKESERLSITKSACGRNGKQFCSTLTLNTAQANHTGFYSCKYLAVPTSKKKETESAIYIFISDTGRPFVEMYSEIPEIIHMTEGRELVIPCRVTSPNITVTLKKFPLDTLIPDGKRIIWDSRKGFIISNATYKEIGLLTCEATVNGHLYKTNYLTHRQTNTIIDVQISTPRPVKLLRGHTLVLNCTATTPLNTRVQMTWSYPDEKNKRASVRRRIDQSNSHANIFYSVLTIDKMQNKDKGLYTCRVRSGPSFKSVNTSVHI
2

Now consider a different binder.
Requested field: IC50. Item: mvsFlt 1 MDa HCR (multivalent sFlt-hyaluronic acid conjugate, high conjugation ratio) (other, UniProt P17948 27-328, looked up, thiolated with 2-iminothiolane and linked through EMCH maleimide to 1 MDa hyaluronic acid, domain: first 3 Ig-like extracellular domains; Protein-polymer conjugate; 30:1 sFlt:HyA feed ratio; final sFlt:HyA 14.1 by SEC-MALS; not shown: tag implied by Ni-NTA purification, not described) SKLKDPELSLKGTQHIMQAGQTLHLQCRGEAAHKWSLPEMVSKESERLSITKSACGRNGKQFCSTLTLNTAQANHTGFYSCKYLAVPTSKKKETESAIYIFISDTGRPFVEMYSEIPEIIHMTEGRELVIPCRVTSPNITVTLKKFPLDTLIPDGKRIIWDSRKGFIISNATYKEIGLLTCEATVNGHLYKTNYLTHRQTNTIIDVQISTPRPVKLLRGHTLVLNCTATTPLNTRVQMTWSYPDEKNKRASVRRRIDQSNSHANIFYSVLTIDKMQNKDKGLYTCRVRSGPSFKSVNTSVHI
3.3

Origin of the recorded values: patent US20240148882A1
